experiment: Rat infusion study: clinical signs and IV plasma pharmacokinetics across infusion lengths; format: in vivo; conditions: male, Sprague-Dawley, rat, plasma, iv, 4 mg/kg, male Sprague-Dawley rats, 4 mg/kg IV, 10-min infusion

sample-smiles | endpoint-unit | AUC(0-inf)
C[C@H](N)CCCc1cc(Cl)c(F)c(-c2cc3cn(-c4ccc([C@@H]5CCC[C@@H](CCSC(=N)N)N5)cc4)c(=O)nc3[nH]2)c1 | ng·h/mL | 22000

====

assay: Rat infusion study: clinical signs and IV plasma pharmacokinetics across infusion lengths; format: in vivo; conditions: male, Sprague-Dawley, rat, plasma, iv, 4 mg/kg, male Sprague-Dawley rats, plasma, 4 mg/kg IV; first of two cells, infusion group(s) unclear (grid: 10-min); read-out: T½ (h)-terminal (converted)

compound | endpoint-unit | half-life
C[C@H](N)CCCc1cc(Cl)c(F)c(-c2cc3cn(-c4ccc([C@@H]5CCC[C@@H](CCSC(=N)N)N5)cc4)c(=O)nc3[nH]2)c1 [Compound 34] | h | 15.2

====

assay: Rat infusion study: clinical signs and IV plasma pharmacokinetics across infusion lengths; format: in vivo; conditions: male, Sprague-Dawley, rat, plasma, iv, 4 mg/kg, male Sprague-Dawley rats, 4 mg/kg IV, 1 h infusion
readout: Cmax (ng/mL)

sample-smiles | readout | reported
C[C@H](N)CCCc1cc(Cl)c(F)c(-c2cc3cn(-c4ccc([C@@H]5CCC[C@@H](CCSC(=N)N)N5)cc4)c(=O)nc3[nH]2)c1 | Cmax | 8890

====

test: Rat infusion study: clinical signs and IV plasma pharmacokinetics across infusion lengths; format: in vivo; details: male, Sprague-Dawley, rat, plasma, iv, 4 mg/kg, male Sprague-Dawley rats, plasma, 4 mg/kg IV, 10-min infusion; read-out: T½ (h)-alpha (converted)

compound | half-life (h)
C[C@H](N)CCCc1cc(Cl)c(F)c(-c2cc3cn(-c4ccc([C@@H]5CCC[C@@H](CCSC(=N)N)N5)cc4)c(=O)nc3[nH]2)c1 [Compound 34] | 1.01

====

assay: Rat infusion study: clinical signs and IV plasma pharmacokinetics across infusion lengths; assay type: in vivo; settings: male, Sprague-Dawley, rat, plasma, iv, 4 mg/kg, male Sprague-Dawley rats, 4 mg/kg IV, 10-min infusion

molecule | Cmax (ng/mL)
C[C@H](N)CCCc1cc(Cl)c(F)c(-c2cc3cn(-c4ccc([C@@H]5CCC[C@@H](CCSC(=N)N)N5)cc4)c(=O)nc3[nH]2)c1 [Compound 34] | 23600

====

test: Rat infusion study: clinical signs and IV plasma pharmacokinetics across infusion lengths; assay type: in vivo; conditions: male, Sprague-Dawley, rat, plasma, iv, 4 mg/kg, male Sprague-Dawley rats, 4 mg/kg IV, 2 h infusion

sample-smiles | AUC(0-inf)
C[C@H](N)CCCc1cc(Cl)c(F)c(-c2cc3cn(-c4ccc([C@@H]5CCC[C@@H](CCSC(=N)N)N5)cc4)c(=O)nc3[nH]2)c1 | 14400 ng·h/mL

====

assay: Rat infusion study: clinical signs and IV plasma pharmacokinetics across infusion lengths; format: in vivo; conditions: male, Sprague-Dawley, rat, plasma, iv, 4 mg/kg, male Sprague-Dawley rats, plasma, 4 mg/kg IV, 1 h infusion; read-out: T½ (h)-alpha (converted)

sample-smiles | half-life
C[C@H](N)CCCc1cc(Cl)c(F)c(-c2cc3cn(-c4ccc([C@@H]5CCC[C@@H](CCSC(=N)N)N5)cc4)c(=O)nc3[nH]2)c1 | 0.91 h
